In this section, each of the compounds is paired with its reported Kd.
molecular target: human RORγt ligand binding domain (RORγt LBD) (Homo sapiens, UniProt P51449); construct: His-tag (N); TurboTEV protease cleavage site (ENLYFQG) (N); assay: RORγt ThermoFluor assay (thermal shift, ligand binding affinity); settings: estimated from concentration response of thermal shift
Sequence (P51449 with tags, fused parts or gaps): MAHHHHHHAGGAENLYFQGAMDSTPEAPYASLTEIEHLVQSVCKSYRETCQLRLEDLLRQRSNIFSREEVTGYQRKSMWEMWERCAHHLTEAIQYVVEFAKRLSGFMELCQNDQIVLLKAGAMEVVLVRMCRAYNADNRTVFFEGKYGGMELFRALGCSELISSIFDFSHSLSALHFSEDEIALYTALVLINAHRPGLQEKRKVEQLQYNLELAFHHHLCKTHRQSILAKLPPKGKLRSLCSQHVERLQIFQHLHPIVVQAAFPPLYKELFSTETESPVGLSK
Respond with the bare value in nM.

Worked examples follow.
OC(c1ccc(F)cc1)(c1cccnc1)c1ccc2nc(Cl)c(-c3ccccc3)c(Cl)c2c1 (stereo not drawn) [Example 22] | 75
Cc1ccc(C(O)(c2cccc(F)c2)c2ccc3nc(Cl)c(-c4ccccc4)c(Cl)c3c2)cn1 (stereo not drawn) [Example 71] | 310
Cc1ccc(C(O)(c2ccc3nc(Cl)c(-c4ccccc4)c(Cl)c3c2)c2cncn2C)c(C)n1 (stereo not drawn) [Example 142] | 7.6
Cn1ccnc1C(O)(c1cncnc1)c1ccc2nc(Cl)c(-c3ccccc3)c(Cl)c2c1 (stereo not drawn) [Example 125] | 650
Cn1cncc1C(O)(c1cncnc1)c1ccc2nc(Cl)c(-c3ccccc3)c(Cl)c2c1 (stereo not drawn) [Example 120] | 130

Query: I would be grateful if you could share the reported Kd for CC(=O)N1CCC(C(O)(c2ccc3nc(C(F)(F)F)c(-c4ccccc4)c(C(F)(F)F)c3c2)c2cncn2C)CC1 (single isomer, unassigned) [Example 181c] .
Reply: 23

Query: Param item = COC(c1ccncc1)(c1ccc2nc(N(C)C)c(-c3ccccc3)c(Cl)c2c1)c1cncn1C (stereo not drawn) [Example 128] ; retrieve measured Kd.
Reply: 97

Query: Entry CCCCc1c(-c2ccccc2)cnc2ccc(C(O)(c3ccncc3)c3cncn3C)cc12 (stereo not drawn) [Example 83] : reported Kd = ?
Reply: 4200

Query: Consider the compound shown here: Cn1cncc1C(O)(c1ccc(F)nc1)c1ccc2nc(Cl)c(-c3ccccc3)c(Cl)c2c1 (stereo not drawn) [Example 12] What is its recorded Kd?
Reply: 22

Query: // Kd lookup, key: CCc1nc2ccc(C(O)(c3ccncc3)c3cncn3C)cc2c(N(C)C)c1-c1ccccc1 (stereo not drawn) [Example 98]
Reply: 36
